Data credit: ChEMBL document CHEMBL4706543

Target: Integrin alpha-V/beta-1 (Homo sapiens, UniProt P05556+P06756)
Sequence (P05556 21-798 limits assumed, one chain of several): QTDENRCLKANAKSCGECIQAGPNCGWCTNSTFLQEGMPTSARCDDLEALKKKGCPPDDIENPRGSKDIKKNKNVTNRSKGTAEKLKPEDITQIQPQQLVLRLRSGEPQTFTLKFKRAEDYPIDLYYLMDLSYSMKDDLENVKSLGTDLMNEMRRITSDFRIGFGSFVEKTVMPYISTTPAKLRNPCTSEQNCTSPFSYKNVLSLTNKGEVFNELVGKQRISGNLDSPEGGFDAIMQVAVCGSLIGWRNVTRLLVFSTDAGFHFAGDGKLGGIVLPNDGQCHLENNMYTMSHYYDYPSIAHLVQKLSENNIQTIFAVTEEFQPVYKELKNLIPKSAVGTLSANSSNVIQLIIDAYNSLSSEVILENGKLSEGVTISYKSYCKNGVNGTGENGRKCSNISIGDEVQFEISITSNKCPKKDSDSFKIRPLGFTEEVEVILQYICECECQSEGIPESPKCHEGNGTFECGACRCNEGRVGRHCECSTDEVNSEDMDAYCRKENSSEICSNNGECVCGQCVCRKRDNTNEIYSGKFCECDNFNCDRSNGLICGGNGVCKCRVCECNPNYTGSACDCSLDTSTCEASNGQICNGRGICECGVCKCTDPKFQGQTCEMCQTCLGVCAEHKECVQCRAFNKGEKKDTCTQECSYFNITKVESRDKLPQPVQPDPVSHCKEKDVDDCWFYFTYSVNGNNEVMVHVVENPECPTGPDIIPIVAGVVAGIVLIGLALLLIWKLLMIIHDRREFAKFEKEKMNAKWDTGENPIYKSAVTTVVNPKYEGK
Experiment: Inhibition of integrin alphavbeta1 (unknown origin) by fluorescence polarization assay
experimentalReadout: pIC50
Scale for pIC50: -log10 of concentration given in mol/L; no unit attached.

State, in one line, measured pIC50 of O=C(O)C[C@H](C(=O)N1CC[C@@H](CCc2ccc3c(n2)NCCC3)C1)c1ccccc1
5.40

---

Molecular target: Integrin alpha-V/beta-3 (Homo sapiens, UniProt P05106+P06756)
Sequence (P05106 27-788 limits assumed): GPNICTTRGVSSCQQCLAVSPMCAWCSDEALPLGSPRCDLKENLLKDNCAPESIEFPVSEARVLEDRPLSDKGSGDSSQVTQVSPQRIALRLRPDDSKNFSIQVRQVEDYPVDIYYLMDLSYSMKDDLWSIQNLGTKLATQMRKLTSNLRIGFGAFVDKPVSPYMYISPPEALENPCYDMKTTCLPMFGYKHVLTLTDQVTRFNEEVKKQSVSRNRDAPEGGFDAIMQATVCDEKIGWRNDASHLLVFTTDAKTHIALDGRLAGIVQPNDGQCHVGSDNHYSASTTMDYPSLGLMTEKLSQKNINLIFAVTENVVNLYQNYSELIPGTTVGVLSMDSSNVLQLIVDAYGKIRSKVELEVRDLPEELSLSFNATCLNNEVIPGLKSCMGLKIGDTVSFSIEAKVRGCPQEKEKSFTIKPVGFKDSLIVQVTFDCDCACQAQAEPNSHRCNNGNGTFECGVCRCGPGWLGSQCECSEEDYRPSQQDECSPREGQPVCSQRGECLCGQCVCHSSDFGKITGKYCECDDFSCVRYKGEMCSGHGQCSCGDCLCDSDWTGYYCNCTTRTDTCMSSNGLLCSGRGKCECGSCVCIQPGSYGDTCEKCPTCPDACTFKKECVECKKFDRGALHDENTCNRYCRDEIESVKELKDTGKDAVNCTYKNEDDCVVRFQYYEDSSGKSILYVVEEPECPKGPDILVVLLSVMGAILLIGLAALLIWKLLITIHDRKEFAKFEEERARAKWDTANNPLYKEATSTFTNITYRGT
Sequence (P06756 31-889 limits assumed): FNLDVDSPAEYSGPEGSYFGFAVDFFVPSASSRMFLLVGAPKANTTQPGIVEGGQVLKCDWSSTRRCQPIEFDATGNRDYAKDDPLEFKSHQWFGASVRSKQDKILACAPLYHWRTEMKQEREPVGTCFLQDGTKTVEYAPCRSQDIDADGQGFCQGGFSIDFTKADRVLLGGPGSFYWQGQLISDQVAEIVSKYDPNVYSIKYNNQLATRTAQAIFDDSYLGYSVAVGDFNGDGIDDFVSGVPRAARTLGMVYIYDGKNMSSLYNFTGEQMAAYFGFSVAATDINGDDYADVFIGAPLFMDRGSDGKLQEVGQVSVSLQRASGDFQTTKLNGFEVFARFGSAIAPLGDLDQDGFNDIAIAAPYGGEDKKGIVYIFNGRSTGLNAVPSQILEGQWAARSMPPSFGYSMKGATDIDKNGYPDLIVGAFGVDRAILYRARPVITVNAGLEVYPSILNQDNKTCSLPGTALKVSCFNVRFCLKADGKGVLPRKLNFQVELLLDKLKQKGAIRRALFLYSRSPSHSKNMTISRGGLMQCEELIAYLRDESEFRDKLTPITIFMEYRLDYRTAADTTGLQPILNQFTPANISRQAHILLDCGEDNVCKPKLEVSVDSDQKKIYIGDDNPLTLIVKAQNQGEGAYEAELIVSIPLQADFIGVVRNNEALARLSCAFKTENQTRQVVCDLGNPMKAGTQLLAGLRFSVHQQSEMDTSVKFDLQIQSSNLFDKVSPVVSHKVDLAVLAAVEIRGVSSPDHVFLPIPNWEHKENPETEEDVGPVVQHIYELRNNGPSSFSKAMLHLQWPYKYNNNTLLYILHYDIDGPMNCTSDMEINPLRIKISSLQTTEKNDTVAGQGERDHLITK
Sequence (P06756 891-1048 limits assumed): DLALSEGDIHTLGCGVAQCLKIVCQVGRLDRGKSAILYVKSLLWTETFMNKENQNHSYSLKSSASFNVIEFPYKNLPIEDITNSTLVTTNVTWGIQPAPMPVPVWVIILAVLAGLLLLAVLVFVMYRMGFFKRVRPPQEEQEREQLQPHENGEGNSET
Assay: Inhibition of integrin alphavbeta3 (unknown origin) by fluorescence polarization assay
The reader will find reported IC50 values listed item by item below.
Dear colleague, please return just the value in nM, with no unit written.

State, in one line, measured IC50 of Cc1cc(C)cc([C@H](CC(=O)O)C(=O)N2CC[C@@H](CCc3ccc4c(n3)NCCC4)C2)c1
3980

State, in one line, measured IC50 of O=C(O)C[C@H](C(=O)N1CC[C@@H](CCc2ccc3c(n2)NCCC3)C1)c1cccc(N2CCNCC2)c1
1580

State, in one line, measured IC50 of CN1CCN(c2cccc([C@H](CC(=O)O)C(=O)N3CC[C@@H](CCc4ccc5c(n4)NCCC5)C3)c2)CC1
1260

State, in one line, measured IC50 of O=C(O)C[C@H](C(=O)N1CC[C@@H](CCc2ccc3c(n2)NCCC3)C1)c1ccc(Br)cc1
1260

State, in one line, measured IC50 of O=C(O)C[C@H](C(=O)N1CC[C@@H](CCc2ccc3c(n2)NCCC3)C1)c1cccc(Br)c1
794

---
State, in one line, measured IC50 of O=C(O)C[C@H](C(=O)N1CC[C@@H](CCc2ccc3c(n2)NCCC3)C1)c1cccc(C2=CCCC2)c1
1260

State, in one line, measured IC50 of O=C(O)C[C@H](C(=O)N1CC[C@@H](CCc2ccc3c(n2)NCCC3)C1)c1ccccc1
1000

State, in one line, measured IC50 of O=C(O)C[C@H](C(=O)N1CC[C@@H](CCc2ccc3c(n2)NCCC3)C1)c1cccs1
794

---

Target: Integrin alpha-V/beta-6 (Homo sapiens, UniProt P06756+P18564)
Sequence (P18564 22-788 limits assumed, one chain of several): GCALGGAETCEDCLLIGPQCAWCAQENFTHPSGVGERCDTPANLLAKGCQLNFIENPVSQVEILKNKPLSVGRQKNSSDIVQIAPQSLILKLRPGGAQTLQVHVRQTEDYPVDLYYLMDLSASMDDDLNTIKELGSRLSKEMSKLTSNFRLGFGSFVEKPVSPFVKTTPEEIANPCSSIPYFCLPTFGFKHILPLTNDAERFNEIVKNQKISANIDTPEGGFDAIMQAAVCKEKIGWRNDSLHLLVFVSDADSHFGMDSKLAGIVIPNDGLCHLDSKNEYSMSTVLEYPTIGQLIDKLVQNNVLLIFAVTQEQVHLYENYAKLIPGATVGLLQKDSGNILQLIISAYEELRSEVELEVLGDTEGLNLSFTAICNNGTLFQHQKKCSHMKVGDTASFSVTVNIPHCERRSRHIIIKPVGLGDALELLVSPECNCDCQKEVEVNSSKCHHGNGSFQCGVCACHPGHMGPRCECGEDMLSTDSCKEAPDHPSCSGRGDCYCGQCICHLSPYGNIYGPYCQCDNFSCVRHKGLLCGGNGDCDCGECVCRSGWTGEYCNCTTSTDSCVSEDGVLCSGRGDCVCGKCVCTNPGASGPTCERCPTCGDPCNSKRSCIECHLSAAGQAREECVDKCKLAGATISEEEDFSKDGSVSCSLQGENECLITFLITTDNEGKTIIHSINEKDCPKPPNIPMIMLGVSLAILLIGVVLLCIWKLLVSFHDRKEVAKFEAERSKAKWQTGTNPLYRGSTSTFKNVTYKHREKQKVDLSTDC
Assay: Inhibition of integrin alphavbeta6 (unknown origin) by fluorescence polarization assay
Format: protein-complex assay
pIC50: −log10 of the molar value.
experimentalReadout: pIC50

State, in one line, measured pIC50 of O=C(O)C[C@H](C(=O)N1CC[C@@H](CCc2ccc3c(n2)NCCC3)C1)c1ccccc1
< 4.10

---

The reader will find reported pIC50 values listed item by item below.
Target: Integrin alpha-V/beta-5 (Homo sapiens, UniProt P06756+P18084)
Sequence (P18084 24-799 limits assumed, one chain of several): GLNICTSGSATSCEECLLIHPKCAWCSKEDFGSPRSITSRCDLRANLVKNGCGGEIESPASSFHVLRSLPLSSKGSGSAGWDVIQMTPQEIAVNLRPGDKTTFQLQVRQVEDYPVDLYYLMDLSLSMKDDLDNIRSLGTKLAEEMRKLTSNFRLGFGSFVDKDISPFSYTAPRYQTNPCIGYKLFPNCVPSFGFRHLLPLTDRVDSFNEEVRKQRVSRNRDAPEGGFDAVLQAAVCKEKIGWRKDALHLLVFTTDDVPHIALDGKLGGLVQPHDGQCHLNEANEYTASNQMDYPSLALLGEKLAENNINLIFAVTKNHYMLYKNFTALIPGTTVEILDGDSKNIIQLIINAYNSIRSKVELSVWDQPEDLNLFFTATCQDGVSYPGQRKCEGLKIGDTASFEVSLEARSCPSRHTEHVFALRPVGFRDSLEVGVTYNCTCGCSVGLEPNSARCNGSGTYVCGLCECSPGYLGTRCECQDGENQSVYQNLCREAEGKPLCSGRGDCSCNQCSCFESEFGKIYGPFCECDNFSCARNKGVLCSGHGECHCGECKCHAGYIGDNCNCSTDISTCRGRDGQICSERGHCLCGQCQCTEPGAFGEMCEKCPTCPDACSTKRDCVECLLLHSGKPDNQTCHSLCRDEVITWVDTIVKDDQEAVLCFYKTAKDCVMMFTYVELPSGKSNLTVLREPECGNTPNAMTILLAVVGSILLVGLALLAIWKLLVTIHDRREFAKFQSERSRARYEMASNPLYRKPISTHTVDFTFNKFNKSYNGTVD
Experiment: Inhibition of human alphavbeta5 integrin stably expressed in human K562 cells assessed as inhibition of cell adhesion to vitronectin incubated for 30 mins by BCECF-AM staining based fluorescence assay
Scale for pIC50: -log10 of concentration given in mol/L; no unit attached.

Example entries and their recorded answers appear below.
State, in one line, measured pIC50 of O=C(O)C[C@H](C(=O)N1CC[C@@H](CCc2ccc3c(n2)NCCC3)C1)c1cccc(C2CC2)c1
6.50

State, in one line, measured pIC50 of Cc1cc(C)cc([C@H](CC(=O)O)C(=O)N2CC[C@@H](CCc3ccc4c(n3)NCCC4)C2)c1
6.30

State, in one line, measured pIC50 of O=C(O)C[C@H](C(=O)N1CC[C@@H](CCc2ccc3c(n2)NCCC3)C1)c1cccc(C(F)(F)F)c1
6.10

State, in one line, measured pIC50 of C=C(C)c1cccc([C@H](CC(=O)O)C(=O)N2CC[C@@H](CCc3ccc4c(n3)NCCC4)C2)c1
6.50

State, in one line, measured pIC50 of O=C(O)C[C@H](C(=O)N1CC[C@@H](CCc2ccc3c(n2)NCCC3)C1)c1cccc(Cl)c1
6.90

Next up:
State, in one line, measured pIC50 of Cc1cccc([C@H](CC(=O)O)C(=O)N2CC[C@@H](CCc3ccc4c(n3)NCCC4)C2)c1
7.10
